# System: REL-A (p65) nuclear translocation, HeLa cells
# test name: REL-A (p65) nuclear translocation assay in HeLa cells (classical NF-kB signaling, TNF-α stimulated)
# Type: cell-based
# run parameters: Homo sapiens, 0.5 h; HeLa cells, 10 ng/mL TNF-α for 30 minutes; read-out: REL-A HeLa Transloc Assay (IC50)
outcome measure: pIC50
The value called pIC50 is obtained by taking minus log10 of the concentration in mol/L.

Use these answered entries as a reference point.
test smiles | pIC50
COc1ccn2c(C(N)=O)nc(-c3cccc(C#C[C@]4(O)CCN(C)C4=O)c3)c2c1 | 6.00
COc1cnc2c(c1)c(C(N)=O)nn2-c1cccc(C#C[C@]2(O)CCN(C)C2=O)c1 | 5.10
CN1CC[C@@](O)(C#Cc2cccc(-c3nc(C(N)=O)n4cc(Cl)ccc34)c2)C1=O | 4.70
COc1ccc2c(c1)c(C(N)=O)nn2-c1cccc(C#C[C@]2(O)CCN(C)C2=O)c1 | 4.70
CN1CC[C@@](O)(C#Cc2ccnc(-n3nc(C(N)=O)c4cc(Br)ccc43)c2)C1=O | 4.70
CN1CC[C@@](O)(C#Cc2cccc(-c3nc(C(N)=O)n4ccc(CN5CCOCC5)cc34)c2)C1=O | 5.70
Cc1ncc2c(C(N)=O)nn(-c3cccc(C#C[C@]4(O)CCN(C)C4=O)c3)c2n1 | 5.70
CN1CC[C@@](O)(C#Cc2cccc(-n3nc(C(N)=O)c4ccc(N5CCOCC5)nc43)c2)C1=O | 4.70
NC(=O)c1nn(-c2cc(C#C[C@]3(O)CCc4cccnc43)ccn2)c2cc(F)ccc12 | 4.70
COc1ccc2c(c1)c(C(N)=O)nn2-c1cc(C#C[C@]2(O)CCN(C)C2=O)ccn1 | 5.70

## Input Return pIC50 measured with REL-A (p65) nuclear translocation, HeLa cells given this molecule: `CN1CC[C@@](O)(C#Cc2cccc(-c3nc(C(N)=O)n4ccc(Cl)cc34)c2)C1=O`
## Output 5.20

## Input Return pIC50 measured with REL-A (p65) nuclear translocation, HeLa cells given this molecule: `CN1CC[C@@](O)(C#Cc2cccc(-n3nc(C(N)=O)c4cc(CC#N)ccc43)c2)C1=O`
## Output 4.70
